The reported numbers originate from patent US4346094A.

Recorded measurements of IC50, one per entry
# TESTED_ON: xanthine oxidase (Bos taurus)
# Construct: purchased Sigma Chemical Company, St. Louis, Mo; host or cells: milk (grade III, chromatographically purified)
# Sequence (P80457 whole entry): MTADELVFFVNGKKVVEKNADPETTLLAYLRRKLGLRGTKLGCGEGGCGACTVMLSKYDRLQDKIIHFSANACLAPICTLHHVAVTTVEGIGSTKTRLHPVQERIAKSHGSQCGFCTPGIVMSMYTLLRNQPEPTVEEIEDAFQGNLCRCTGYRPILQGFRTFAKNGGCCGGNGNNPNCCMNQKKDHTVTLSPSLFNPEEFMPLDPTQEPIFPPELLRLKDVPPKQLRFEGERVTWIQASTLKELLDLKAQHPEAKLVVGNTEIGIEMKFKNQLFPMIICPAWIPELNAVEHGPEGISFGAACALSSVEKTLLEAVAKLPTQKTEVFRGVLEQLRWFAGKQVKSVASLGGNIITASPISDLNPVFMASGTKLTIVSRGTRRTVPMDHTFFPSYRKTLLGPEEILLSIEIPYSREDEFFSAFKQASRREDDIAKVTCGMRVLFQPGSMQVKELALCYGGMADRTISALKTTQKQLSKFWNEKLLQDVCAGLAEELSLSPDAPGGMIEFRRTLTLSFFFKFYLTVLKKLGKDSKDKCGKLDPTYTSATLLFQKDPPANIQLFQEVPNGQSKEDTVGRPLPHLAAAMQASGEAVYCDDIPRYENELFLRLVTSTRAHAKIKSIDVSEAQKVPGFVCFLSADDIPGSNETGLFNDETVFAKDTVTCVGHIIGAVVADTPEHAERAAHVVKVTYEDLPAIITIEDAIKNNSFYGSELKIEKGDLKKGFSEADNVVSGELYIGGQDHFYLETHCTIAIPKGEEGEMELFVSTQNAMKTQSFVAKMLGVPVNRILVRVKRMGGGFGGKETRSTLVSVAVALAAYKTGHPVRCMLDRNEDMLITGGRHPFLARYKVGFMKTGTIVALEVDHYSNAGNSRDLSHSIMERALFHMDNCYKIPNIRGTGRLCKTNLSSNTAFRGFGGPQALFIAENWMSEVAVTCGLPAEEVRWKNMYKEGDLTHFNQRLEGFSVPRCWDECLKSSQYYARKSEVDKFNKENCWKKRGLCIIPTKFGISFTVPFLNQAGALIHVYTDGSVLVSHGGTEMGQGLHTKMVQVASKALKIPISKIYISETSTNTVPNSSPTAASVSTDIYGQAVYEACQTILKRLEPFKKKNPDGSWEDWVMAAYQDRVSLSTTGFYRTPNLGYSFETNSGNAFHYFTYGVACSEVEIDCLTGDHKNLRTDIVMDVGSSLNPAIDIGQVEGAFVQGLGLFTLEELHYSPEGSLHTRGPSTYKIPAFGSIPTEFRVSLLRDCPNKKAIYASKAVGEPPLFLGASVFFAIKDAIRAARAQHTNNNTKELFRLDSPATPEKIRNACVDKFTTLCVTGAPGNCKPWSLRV
# PROTOCOL_DETAILS: in vitro xanthine oxidase assay (rate of uric acid formation from xanthine)
# Assay type: biochemical
# unit: nM | format: bare number

**Query** Provide one value: measured IC50 of O=C(O)c1snc(-c2ccc(Cl)cc2)c1Br [R=4-Cl, X=Br]
**Result** 314

**Query** Provide one value: measured IC50 of O=C(O)c1snc(-c2cccc(C(F)(F)F)c2)c1Br [R=3-CF3, X=Br]
**Result** 51.1

**Query** Provide one value: measured IC50 of O=C(O)c1snc(-c2cccc(C(F)(F)F)c2)c1Cl [R=3-CF3, X=Cl]
**Result** 32.5

**Query** Provide one value: measured IC50 of O=C(O)c1snc(-c2cccc(C(F)(F)F)c2)c1I [R=3-CF3, X=I]
**Result** 238

**Query** Provide one value: measured IC50 of O=C(O)c1snc(-c2cccc(Cl)c2)c1Cl [R=3-Cl, X=Cl]
**Result** 69.3
